- Assay protocol: xn = mol fraction of the nth substance listed
- Experimental context: 293.15 K; 100 kPa; Liquid; Cone and plate viscometry; x1 = 0.3
Measurement type: viscosity (mPa·s)
Field format: number, assumed mPa·s, no unit text.

Below, 4 compounds whose answers are already recorded.
CCCCCCCCCCCCCC[P+](CCCCCC)(CCCCCC)CCCCCC.N#Cc1ccc[n-]1 [trihexyl(tetradecyl)phosphonium 2-cyanopyrrolide] + CCCCCCn1cc[n+](C)c1C.O=S(=O)([N-]S(=O)(=O)C(F)(F)F)C(F)(F)F
332
CC(=O)[O-].CCCCCCCCCCCCCC[P+](CCCCCC)(CCCCCC)CCCCCC [trihexyl(tetradecyl)phosphonium acetate] + CCCCCC[n+]1ccn(C)c1.O=S(=O)([N-]S(=O)(=O)C(F)(F)F)C(F)(F)F
319
CCCCCCn1cc[n+](C)c1.N#Cc1ccc[n-]1 [1-hexyl-3-methylimidazolium 2-cyanopyrrolide] + CCCCCCCCCCCCCC[P+](CCCCCC)(CCCCCC)CCCCCC.O=S(=O)([N-]S(=O)(=O)C(F)(F)F)C(F)(F)F
419
CCCCCCCCCCCCCC[P+](CCCCCC)(CCCCCC)CCCCCC.N#Cc1ccc[n-]1 [trihexyl(tetradecyl)phosphonium 2-cyanopyrrolide] + CCCCCC[n+]1ccn(C)c1.O=S(=O)([N-]S(=O)(=O)C(F)(F)F)C(F)(F)F
229

# input for lookup
[in] Determine its reported viscosity: CCCCCCCCCCCCCC[P+](CCCCCC)(CCCCCC)CCCCCC.O=[N+]([O-])c1cn[n-]c1 [trihexyl(tetradecyl)phosphonium 4-nitropyrazolide] + CCCCCC[n+]1ccn(C)c1.O=S(=O)([N-]S(=O)(=O)C(F)(F)F)C(F)(F)F
[out] 282
